Target: Glutamate NMDA receptor; Grin1/Grin2b (Rattus norvegicus) (UniProt P35439+Q00960)
Experiment: Positive allosteric modulation of recombinant rat GluN1/GluN2B receptor expressed in xenopus laevis oocyte assessed as compound concentration required to show two fold increase in glutamate and glycine-induced current response at holding potential -40mV by two electrode voltage clamp method
MEASURE_NAME: CD (µM)

CC(C)Oc1ccc(OCC2c3ccc(OC(C)C)cc3CCN2C(=S)c2cccc(Cl)c2)cc1 (stereo not given): 4

a: CCOc1ccc(OCC2c3ccc(OC(C)C)cc3CCN2C(=S)c2ccc(F)c(Cl)c2)cc1 (stereo not given)
b: COc1ccc(OCC2c3ccc(OC(C)C)cc3CCN2C(=S)c2cccc(F)c2)cc1 (stereo not given)
c: CC(C)Oc1ccc(OCC2c3ccc(OC(C)C)cc3CCN2C(=S)c2cccc(F)c2)cc1 (stereo not given)
d: CCOc1ccc(OC[C@@H]2c3ccc(OC(C)C)cc3CCN2C(=O)c2cccc(F)c2)cc1
Please list these compounds in decreasing order of CD. Please list the labels in the order you were asked to rank them.
d, a, c, b
(d: 40 µM, a: 17 µM, c: 9 µM, b: 1.9 µM)

====

Molecular target: Glutamate NMDA receptor; Grin1/Grin2b (Rattus norvegicus) (UniProt P35439+Q00960)
Test: Positive allosteric modulation of recombinant rat GluN1/GluN2B receptor expressed in xenopus laevis oocyte assessed as potentiation of glutamate and glycine-induced current response at 30 uM at holding potential -40mV by two electrode voltage clamp method relative to control
MEASURE_NAME: Activity (%)

COc1ccc(OCC2c3ccc(N(C)C(C)C)cc3CCN2C(=O)c2cccc(Cl)c2)cc1 (stereo not given): 228
COc1ccc(OCC2c3ccc(NC(C)C)cc3CCN2C(=O)c2cccc(Cl)c2)cc1 (stereo not given): 138
CCOc1ccc(OCC2c3ccc(OC(C)C)cc3CCN2C(=O)c2ccc(Cl)cc2)cc1 (stereo not given): 112

1: CCOc1ccc(OCC2c3ccc(OC4CCCC4)cc3CCN2C(=O)c2cccc(F)c2)cc1 (stereo not given)
2: COc1ccc(OCC2c3ccc(OC(C)C)cc3CCN2C(=O)c2cccc(N)c2)cc1 (stereo not given)
// which entry reports the smaller Activity, 1 or 2 ? Which one? Tell me its label.
2
(2: 106%, 1: 202%)

====

Experiment: Cmax in C57Bl/6 mouse plasma at 10 mg/kg, ip after 2 hrs by LC/MS/MS analysis
Type: ADME, organism-based
Set-up: dose 10 mg/kg, route intraperitoneal
MEASURE_NAME: Cmax (nM)
Value expressed in nM; do not type the unit.

Item COc1ccc(OCC2c3ccc(OC(C)C)cc3CCN2C(=O)c2cccc(Cl)c2)cc1 (stereo unspecified) has what recorded Cmax?
1700

====

Molecular target: Glutamate NMDA receptor; Grin1/Grin2b (Rattus norvegicus) (UniProt P35439+Q00960)
Test: Positive allosteric modulation of recombinant rat GluN1/GluN2B receptor expressed in xenopus laevis oocyte assessed as potentiation of glutamate and glycine-induced current response at 30 uM at holding potential -40mV by two electrode voltage clamp method relative to control
MEASURE_NAME: Emax (%)

// known answers, use as guide
COc1ccc(OC[C@@H]2c3ccc(OC(C)C)cc3CCN2C(=S)c2cccc(Cl)c2)cc1: 214
COc1ccc(OCC2c3ccc(OC(C)C)cc3CCN2C(=S)c2cccc(F)c2)cc1 (centres undefined): 259
CC(C)Oc1ccc(OCC2c3ccc(OC(C)C)cc3CCN2C(=O)c2cccc(F)c2)cc1 (centres undefined): 185
CCOc1ccc2c(c1)CCN(C(=O)c1cccc(Cl)c1)C2COc1ccc(OC)cc1 (centres undefined): 167
CC(C)Oc1ccc(OCC2c3ccc(OC(C)C)cc3CCN2C(=S)c2cccc(Cl)c2)cc1 (centres undefined): 209

A: CC(C)Oc1ccc(OCC2c3ccc(OC(C)C)cc3CCN2C(=S)c2cccc(C(F)(F)F)c2)cc1 (centres undefined)
B: CCOc1ccc(OCC2c3ccc(OCC(C)C)cc3CCN2C(=O)c2cccc(F)c2)cc1 (centres undefined)
Which entry shows the lesser value of Emax here, A or B ? // caller expects the label of the chosen entry
A

P: CC(C)Oc1ccc2c(c1)CCN(C(=O)c1cccc(Cl)c1)C2COc1ccc(OC(F)(F)F)cc1 (centres undefined)
Q: COc1ccc(OCC2c3ccc(OC(C)C)cc3CCN2C(=O)c2cccc([N+](=O)[O-])c2)cc1 (centres undefined)
Higher Emax between P and Q ? Reply briefly: the label of your chosen item.
Q
(Q: 203%, P: 130%)

A: CCOc1ccc(OCC2c3ccc(OC(C)C)cc3CCN2C(=O)c2cccc(F)c2)cc1 (centres undefined)
B: CCOc1ccc(OCC2c3ccc(OCC(C)C)cc3CCN2C(=O)c2cccc(Cl)c2)cc1 (centres undefined)
Rank A against B by their Emax values and give the higher one. Respond using the label that marks the chosen record.
B
(B: 293%, A: 152%)

A: CCOc1ccc(OCC2c3ccc(OC(C)C)cc3CCN2C(=S)c2cccc(Br)c2)cc1 (centres undefined)
B: COc1ccc(OCC2c3ccc(OC4CCCCC4)cc3CCN2C(=O)c2cccc(Cl)c2)cc1 (centres undefined)
Look at A and B . Which one has the lower recorded Emax number? Output the label that corresponds to your choice.
A
